# TEST SYSTEM: casein kinase 1ε (Homo sapiens, UniProt P49674)
# Sequence (P49674 whole entry): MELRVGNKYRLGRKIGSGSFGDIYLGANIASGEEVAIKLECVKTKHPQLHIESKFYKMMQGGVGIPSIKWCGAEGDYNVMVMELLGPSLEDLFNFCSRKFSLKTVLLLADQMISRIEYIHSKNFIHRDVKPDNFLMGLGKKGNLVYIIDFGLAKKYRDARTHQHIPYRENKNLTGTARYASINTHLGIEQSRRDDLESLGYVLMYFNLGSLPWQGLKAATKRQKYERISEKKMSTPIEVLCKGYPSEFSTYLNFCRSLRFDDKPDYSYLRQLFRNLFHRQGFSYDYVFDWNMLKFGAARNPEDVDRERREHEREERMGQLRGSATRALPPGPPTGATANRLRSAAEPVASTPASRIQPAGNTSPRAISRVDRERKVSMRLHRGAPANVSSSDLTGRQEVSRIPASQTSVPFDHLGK
Items are presented alongside their recorded pIC50.
# reply with the number alone; pIC50 is -log10 of concentration in mol/L

# annotated cases, reported pIC50 shown
Task item: Report measured pIC50 on casein kinase 1ε (Homo sapiens, UniProt P49674); entry: NC(=O)c1[nH]c2ccccc2c1Sc1cccc(F)c1 [If]
Reply: 6.37

Task item: Look up and report measured pIC50 (casein kinase 1ε (Homo sapiens, UniProt P49674)) for the following molecule: NC(=O)c1[nH]c2ccccc2c1OCc1ccccc1 [Iu]
Reply: 5.00

More entries:
Task item: Provide pIC50, tested on casein kinase 1ε (Homo sapiens, UniProt P49674), for NC(=O)c1[nH]c2ccccc2c1Sc1ccccc1N [Ih] .
Reply: 7.10

Task item: Determine reported pIC50 for NC(=O)c1[nH]c2ccccc2c1Sc1ccccc1 [Ic] ; test system: casein kinase 1ε (Homo sapiens, UniProt P49674).
Reply: 5.51

Task item: State recorded pIC50 with casein kinase 1ε (Homo sapiens, UniProt P49674), entry NC(=O)c1[nH]c2ccccc2c1Sc1ccccn1 [Ii] , no comment.
Reply: 3.73

Task item: With casein kinase 1ε (Homo sapiens, UniProt P49674) as the test system, provide measured pIC50 for this molecule: NC(=O)c1[nH]c2ccccc2c1S(=O)(=O)c1ccccc1 [Ib]
Reply: 5.57

Task item: State recorded pIC50 with casein kinase 1ε (Homo sapiens, UniProt P49674), entry COc1ccc2[nH]c(C(N)=O)c(Sc3ccccc3N)c2c1 [Ie] , no comment.
Reply: 6.74

Task item: Answer briefly: pIC50 recorded on casein kinase 1ε (Homo sapiens, UniProt P49674) for COc1c(C(N)=O)[nH]c2ccccc12 [Iq]
Reply: 4.87

###

The following compounds are shown together with reported melting point values.

Example entries begin here.
Task item: Identify melting point associated with the compound Cc1ccc(Sc2c(C(=O)N3CCCC3)[nH]c3ccc(F)cc23)cc1 [Iw]
Reply: 254 to 255 °C

Task item: Give recorded melting point. O=C(c1[nH]c2ccc(F)cc2c1Sc1ccccn1)N1CCCC1 [Iaf]
Reply: 254 to 255 °C

Task item: Supply melting point value. Item: O=C(c1[nH]c2ccccc2c1Sc1ccccc1)N1CCCCC1 [Ix]
Reply: 161 to 162 °C

Task item: Consider the compound O=C(c1[nH]c2ccc(F)cc2c1Sc1ccccc1)N1CCCC1 [Iy] and give its recorded melting point.
Reply: 254 to 255 °C

Task item: Give melting point for the following compound: NC(=O)c1[nH]c2ccccc2c1Sc1ccccc1 [Ic]
Reply: 197 to 197.5 °C

---
Task item: Could you please provide reported melting point for O=C(c1[nH]c2ccccc2c1Sc1ccccn1)N1CCCC1 [Iag] ? Thanks!
Reply: 213 to 214 °C

###

Each entry below carries its measured IC50, system: UniProt:P49674.

Task item: Name the value of IC50 reported for NC(=O)c1[nH]c2ccc(Cl)cc2c1S(=O)(=O)c1ccccc1 when tested on UniProt:P49674.
Reply: > 10 µM

Task item: Quote IC50 with test system UniProt:P49674 for NC(=O)c1[nH]c2ccccc2c1Oc1ccccc1
Reply: > 10 µM

Proceeding to the next compound to report its IC50.
Task item: Output reported IC50 of the compound CNC(=O)c1[nH]c2ccccc2c1Sc1ccccn1 on UniProt:P49674.
Reply: > 10 µM
